Entry source: PubChem BioAssay (NCI)

The entries below are paired with their reported TGI.
Tested on: UO-31 renal
Experiment: NCI tumour cell line growth inhibition, 48 h
Assay Endpoint: TGI

[
  {
    "Molecule": "O=C(Nc1ccccc1)c1cc2ccccc2c(N=Nc2ccc([N+](=O)[O-])cc2)c1O",
    "Assay Value": "> 100 µM"
  },
  {
    "Molecule": "c1cc(N2CCCN(c3ccc(C4=NCCCN4)cc3)CC2)ccc1C1=NCCCN1",
    "Assay Value": "> 100 µM"
  },
  {
    "Molecule": "NC[C@H]1Nc2ccccc2[C@@H](O)C1O (stereo partly drawn)",
    "Assay Value": "> 100 µM"
  }
]
